- assay system: Mu-type opioid receptor (Homo sapiens, UniProt P35372)
- Sequence (P35372 whole entry): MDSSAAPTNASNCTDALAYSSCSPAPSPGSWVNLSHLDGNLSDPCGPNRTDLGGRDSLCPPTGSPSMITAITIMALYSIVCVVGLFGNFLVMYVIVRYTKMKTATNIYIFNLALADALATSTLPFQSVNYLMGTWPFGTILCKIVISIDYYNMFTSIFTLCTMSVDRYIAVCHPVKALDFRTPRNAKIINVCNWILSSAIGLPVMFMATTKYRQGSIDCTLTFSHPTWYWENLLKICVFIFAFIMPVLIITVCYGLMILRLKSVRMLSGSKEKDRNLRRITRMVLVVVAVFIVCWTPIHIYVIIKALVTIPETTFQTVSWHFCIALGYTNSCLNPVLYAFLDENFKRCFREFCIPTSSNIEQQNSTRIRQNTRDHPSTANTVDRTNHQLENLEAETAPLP
- experimental details: Agonist activity at human MOR expressed in CHOK1 cells assessed as […] of cAMP accumulation incubated for 45 mins by HTRF assay
parameter: EC50 (nM)

CC1OC2(CCN(CCc3ccccc3)CC2)CN(c2ncccc2C(F)(F)F)C1=O (stereo not drawn)	343
COc1ccccc1N1CC2(CCN(CCc3ccccc3)CC2)OC(C)C1=O (stereo not drawn)	144
CC1(C)OC2(CCN(CCc3ccccc3)CC2)CN(c2ccccc2)C1=O	4
CCC1OC2(CCN(CCc3ccccc3)CC2)CN(c2ccccc2)C1=O (stereo not drawn)	1
CC1OC2(CCN(CCc3ccccc3)CC2)CN(c2ccccc2Cl)C1=O (stereo not drawn)	1
CC(=O)Nc1ccccc1CCN1CCC2(CC1)CN(c1ccccc1)C(=O)C(C)O2 (stereo not drawn)	342
CC1OC2(CCN(CCc3ccccc3)CC2)CN(c2cncc(C(F)(F)F)c2)C1=O (stereo not drawn)	721
CC1OC2(CCN(CCc3ccccc3)CC2)CN(c2cccnc2)C1=O (stereo not drawn)	627
CC1OC2(CCN(CCc3ccccc3)CC2)CN(c2cnccc2C(F)(F)F)C1=O (stereo not drawn)	25
CC1OC2(CCN(CCc3cccnc3)CC2)CN(c2ccccc2)C1=O (stereo not drawn)	853
CC(C)C1OC2(CCN(CCc3ccccc3)CC2)CN(c2ccccc2)C1=O (stereo not drawn)	0.2
CC1OC2(CCN(CCc3ccccc3)CC2)CN(c2ncccc2F)C1=O (stereo not drawn)	199
O=C1C(CO)OC2(CCN(CCc3ccccc3)CC2)CN1c1ccccc1 (stereo not drawn)	125
CC1OC2(CCN(CCc3cccc(F)c3)CC2)CN(c2ccccc2)C1=O (stereo not drawn)	13
CC1OC2(CCN(CCc3ccccc3)CC2)CN(c2cncc(F)c2)C1=O (stereo not drawn)	230
CC1OC2(CCN(CCc3ccccc3)CC2)CN(c2cccc(C(F)(F)F)n2)C1=O (stereo not drawn)	219
O=C1N(c2ccccc2)CC2(CCN(CCc3ccccc3)CC2)OC12CC2	11
COc1cccc(N2CC3(CCN(CCc4ccccc4)CC3)OC(C)C2=O)c1 (stereo not drawn)	304
CC1OC2(CCN(CCc3ccccc3)CC2)CN(c2ccccn2)C1=O (stereo not drawn)	1990
CC1OC2(CCN(CCc3ccccn3)CC2)CN(c2ccccc2)C1=O (stereo not drawn)	229
CC1OC2(CCN(CCc3ccccc3)CC2)CN(c2cccnc2C(F)(F)F)C1=O (stereo not drawn)	186
CC1OC2(CCN(CCc3ccncc3)CC2)CN(c2ccccc2)C1=O (stereo not drawn)	1420
COCC1OC2(CCN(CCc3ccccc3)CC2)CN(c2ccccc2)C1=O (stereo not drawn)	32
C[C@H]1OC2(CCN(CCc3ccccc3F)CC2)CN(c2cnccc2C(F)(F)F)C1=O	26
CC(=O)Nc1cccc(CCN2CCC3(CC2)CN(c2ccccc2)C(=O)[C@@H](C)O3)c1	69
CC1OC2(CCN(CCc3ccccc3)CC2)CN(c2cnccn2)C1=O (stereo not drawn)	527
CC1OC2(CCN(CCc3ccc(F)cc3)CC2)CN(c2ccccc2)C1=O (stereo not drawn)	25
COC(=O)CC1OC2(CCN(CCc3ccccc3)CC2)CN(c2ccccc2)C1=O (stereo not drawn)	181
CC1OC2(CCN(CCc3ccccn3)CC2)CN(c2cnccc2C(F)(F)F)C1=O (stereo not drawn)	767
O=C1C(COCc2ccccc2)OC2(CCN(CCc3ccccc3)CC2)CN1c1ccccc1 (stereo not drawn)	107
CC1OC2(CCN(CCc3cccc(C#N)c3)CC2)CN(c2ccccc2)C1=O (stereo not drawn)	61
O=C1COC2(CCN(Cc3ccccc3)CC2)CN1c1ccccc1	3040

* * *

- assay system: Voltage-gated inwardly rectifying potassium channel KCNH2 (Homo sapiens, UniProt Q12809)
- Sequence (Q12809 whole entry): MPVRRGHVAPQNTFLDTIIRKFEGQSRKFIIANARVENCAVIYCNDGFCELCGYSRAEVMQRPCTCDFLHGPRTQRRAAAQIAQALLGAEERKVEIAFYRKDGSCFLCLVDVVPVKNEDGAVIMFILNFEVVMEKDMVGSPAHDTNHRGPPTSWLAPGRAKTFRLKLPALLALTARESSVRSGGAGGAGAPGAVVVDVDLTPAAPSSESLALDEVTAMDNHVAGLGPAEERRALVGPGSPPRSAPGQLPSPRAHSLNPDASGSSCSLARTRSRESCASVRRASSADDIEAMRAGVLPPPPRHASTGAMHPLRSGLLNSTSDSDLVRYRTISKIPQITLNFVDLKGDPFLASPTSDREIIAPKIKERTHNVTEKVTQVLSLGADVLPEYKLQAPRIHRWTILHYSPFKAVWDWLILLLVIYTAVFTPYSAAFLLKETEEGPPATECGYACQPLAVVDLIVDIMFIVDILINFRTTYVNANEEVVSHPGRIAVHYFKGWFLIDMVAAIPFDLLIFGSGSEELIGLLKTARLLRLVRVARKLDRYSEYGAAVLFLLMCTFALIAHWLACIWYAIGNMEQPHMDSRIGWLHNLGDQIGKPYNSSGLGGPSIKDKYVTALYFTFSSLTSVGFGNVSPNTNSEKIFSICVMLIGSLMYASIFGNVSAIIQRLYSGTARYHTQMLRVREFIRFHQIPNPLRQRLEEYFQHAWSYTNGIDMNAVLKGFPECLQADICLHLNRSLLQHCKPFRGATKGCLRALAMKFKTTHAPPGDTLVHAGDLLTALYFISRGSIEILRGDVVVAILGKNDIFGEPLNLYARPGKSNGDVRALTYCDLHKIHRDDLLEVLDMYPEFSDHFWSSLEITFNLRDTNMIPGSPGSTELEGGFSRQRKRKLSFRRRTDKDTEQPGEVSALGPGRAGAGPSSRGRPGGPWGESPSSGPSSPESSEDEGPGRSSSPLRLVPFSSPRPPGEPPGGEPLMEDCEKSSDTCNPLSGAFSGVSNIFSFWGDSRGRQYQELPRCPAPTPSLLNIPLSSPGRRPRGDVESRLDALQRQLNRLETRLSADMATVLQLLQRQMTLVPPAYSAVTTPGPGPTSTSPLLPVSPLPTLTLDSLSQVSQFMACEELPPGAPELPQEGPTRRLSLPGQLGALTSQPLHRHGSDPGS
parameter: IC50 (µM)

CC1OC2(CCN(CCc3ccccc3)CC2)CN(c2ccccc2Cl)C1=O (configuration not stated)	1
COC(=O)CC1OC2(CCN(CCc3ccccc3)CC2)CN(c2ccccc2)C1=O (configuration not stated)	0.2
O=C1C(CO)OC2(CCN(CCc3ccccc3)CC2)CN1c1ccccc1 (configuration not stated)	1.1
CC1OC2(CCN(CCc3ccccn3)CC2)CN(c2ccccc2)C1=O (configuration not stated)	2
CC1OC2(CCN(CCc3cccc(C#N)c3)CC2)CN(c2ccccc2)C1=O (configuration not stated)	0.6
CC1OC2(CCN(CCc3ccccc3)CC2)CN(c2cccnc2C(F)(F)F)C1=O (configuration not stated)	3.8
CC1OC2(CCN(CCc3ccccc3)CC2)CN(c2cnccc2C(F)(F)F)C1=O (configuration not stated)	3.3
C[C@H]1OC2(CCN(CCc3ccccc3F)CC2)CN(c2cnccc2C(F)(F)F)C1=O	6.3
CC1OC2(CCN(CCc3ccccc3)CC2)CN(c2cnccn2)C1=O (configuration not stated)	0.1
CC1OC2(CCN(CCc3ccccc3)CC2)CN(c2cncc(F)c2)C1=O (configuration not stated)	1.1

* * *

- assay system: Alpha-1A adrenergic receptor (Homo sapiens) (UniProt P35348)
- Sequence (P35348 whole entry): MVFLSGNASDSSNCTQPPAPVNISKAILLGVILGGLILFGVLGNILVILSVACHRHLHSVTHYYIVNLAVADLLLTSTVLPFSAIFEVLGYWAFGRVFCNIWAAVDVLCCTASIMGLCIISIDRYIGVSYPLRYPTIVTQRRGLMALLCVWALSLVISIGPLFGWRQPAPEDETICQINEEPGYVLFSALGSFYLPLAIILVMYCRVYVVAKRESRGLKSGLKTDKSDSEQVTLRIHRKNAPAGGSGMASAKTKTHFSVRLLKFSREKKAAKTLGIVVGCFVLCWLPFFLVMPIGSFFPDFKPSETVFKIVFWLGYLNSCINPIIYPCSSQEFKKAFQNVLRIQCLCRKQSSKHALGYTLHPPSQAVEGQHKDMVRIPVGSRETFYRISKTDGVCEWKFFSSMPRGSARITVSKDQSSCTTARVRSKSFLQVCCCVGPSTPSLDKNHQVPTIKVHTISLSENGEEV
- experimental details: Displacement of [3H]-prazosin from human alpha1A adrenoreceptor expressed in enriched membranes at 1 uM incubated for 90 mins by liquid scintillation counting method relative to control
- Format: cell membranes
Classify by measured inhibition: y if it is equal to or exceeds 60%, n if it is smaller.

CC1OC2(CCN(CCc3ccccc3)CC2)CN(c2ccc(C(F)(F)F)nc2)C1=O (stereo unspecified)	y
CC1OC2(CCN(CCc3ccccc3F)CC2)CN(c2ccccc2)C1=O (stereo unspecified)	y
CC1OC2(CCN(CCc3ccccc3)CC2)CN(c2cccc(C(F)(F)F)n2)C1=O (stereo unspecified)	y
CC1OC2(CCN(CCc3ccccc3)CC2)CN(c2ncccc2F)C1=O (stereo unspecified)	y
C[C@H]1OC2(CCN(CCc3ccccc3F)CC2)CN(c2cnccc2C(F)(F)F)C1=O	n
CC1OC2(CCN(CCc3ccccc3)CC2)CN(c2ccc(O)cc2)C1=O (stereo unspecified)	y
COc1ccccc1N1CC2(CCN(CCc3ccccc3)CC2)OC(C)C1=O (stereo unspecified)	y
COc1cccc(N2CC3(CCN(CCc4ccccc4)CC3)OC(C)C2=O)c1 (stereo unspecified)	y
CC1OC2(CCN(CCc3cccc(F)c3)CC2)CN(c2ccccc2)C1=O (stereo unspecified)	y
CC1(C)OC2(CCN(CCc3ccccc3)CC2)CN(c2ccccc2)C1=O	y
CC1OC2(CCN(CCc3ccccc3)CC2)CN(c2cccc(O)c2)C1=O (stereo unspecified)	y
CC1OC2(CCN(CCc3ccccc3)CC2)CN(c2cnccc2C(F)(F)F)C1=O (stereo unspecified)	n
CC1OC2(CCN(CCc3ccccn3)CC2)CN(c2ccccc2)C1=O (stereo unspecified)	n
COc1ccc(N2CC3(CCN(CCc4ccccc4)CC3)OC(C)C2=O)cc1 (stereo unspecified)	y
C[C@H]1OC2(CCN(CCc3ccccc3F)CC2)CN(c2ncccc2C(F)(F)F)C1=O	n
CC1OC2(CCN(CCc3ccccc3)CC2)CN(c2cccnc2C(F)(F)F)C1=O (stereo unspecified)	n
CC(=O)Nc1cccc(CCN2CCC3(CC2)CN(c2ccccc2)C(=O)[C@@H](C)O3)c1	y
O=C1C(CO)OC2(CCN(CCc3ccccc3)CC2)CN1c1ccccc1 (stereo unspecified)	n
CC1OC2(CCN(CCc3ccccc3)CC2)CN(c2cccnc2)C1=O (stereo unspecified)	y

* * *

- assay system: Voltage-gated inwardly rectifying potassium channel KCNH2 (Homo sapiens)
pIC50: −log10 of the molar value.
parameter: pIC50

CC1OC2(CCN(CCc3ccccc3)CC2)CN(c2cncc(C(F)(F)F)c2)C1=O (stereo not given)	6.30
CC1OC2(CCN(CCc3ccccc3)CC2)CN(c2ncccc2F)C1=O (stereo not given)	5.92
CC1OC2(CCN(CCc3ccccc3)CC2)CN(c2ccccc2F)C1=O (stereo not given)	5.92
CC1(C)OC2(CCN(CCc3ccccc3)CC2)CN(c2ccccc2)C1=O	7.00
COc1cccc(N2CC3(CCN(CCc4ccccc4)CC3)OC(C)C2=O)c1 (stereo not given)	6.00

* * *

- assay system: 5-hydroxytryptamine receptor 2B (Homo sapiens, UniProt P41595)
- Sequence (P41595 whole entry): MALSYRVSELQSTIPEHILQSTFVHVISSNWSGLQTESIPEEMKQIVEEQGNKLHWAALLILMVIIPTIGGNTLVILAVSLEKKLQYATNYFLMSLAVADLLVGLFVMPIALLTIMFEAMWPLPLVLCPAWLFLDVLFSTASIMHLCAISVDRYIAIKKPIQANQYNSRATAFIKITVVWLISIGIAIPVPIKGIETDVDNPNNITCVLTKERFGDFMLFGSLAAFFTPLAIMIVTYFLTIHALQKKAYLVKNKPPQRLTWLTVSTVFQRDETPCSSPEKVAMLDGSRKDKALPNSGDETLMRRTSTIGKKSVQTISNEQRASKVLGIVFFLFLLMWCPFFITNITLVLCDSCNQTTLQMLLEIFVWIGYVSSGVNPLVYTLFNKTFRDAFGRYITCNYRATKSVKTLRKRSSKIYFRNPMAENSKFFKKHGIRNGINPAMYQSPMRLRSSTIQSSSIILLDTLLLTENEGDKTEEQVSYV
- experimental details: Inhibition of 5HT2B receptor (unknown origin)
parameter: Ki (nM)

O=C1N(c2cccnc2C(F)(F)F)CC2(CCN(CCc3ccccc3F)CC2)OC12CC2	754

* * *

- experimental details: Basicity constant, pKa of the compound
- Assay type: physicochemical
parameter: pKa

O=C1N(c2cccnc2C(F)(F)F)CC2(CCN(CCc3ccccc3F)CC2)OC12CC2	7.82

* * *

pKi: −log10 of the molar value.
# pKi per entry for Mu-type opioid receptor (Homo sapiens)
parameter: pKi

COCC1OC2(CCN(CCc3ccccc3)CC2)CN(c2ccccc2)C1=O (stereo not given)	7.89
CC1OC2(CCN(CCc3ccccc3)CC2)CN(c2cccnc2C(F)(F)F)C1=O (stereo not given)	6.91
COc1cccc(N2CC3(CCN(CCc4ccccc4)CC3)OC(C)C2=O)c1 (stereo not given)	6.90
CC1OC2(CCN(CCc3ccccc3)CC2)CN(c2cnccn2)C1=O (stereo not given)	6.52
CC1OC2(CCN(CCc3cccc(C#N)c3)CC2)CN(c2ccccc2)C1=O (stereo not given)	7.31

* * *

# pIC50 per entry for Voltage-gated inwardly rectifying potassium channel KCNH2 (Homo sapiens, UniProt Q12809)
pIC50: −log10 of the molar value.
parameter: pIC50

CC1OC2(CCN(CCc3cccc(F)c3)CC2)CN(c2ccccc2)C1=O (stereo not given)	6.22
O=C1C(COCc2ccccc2)OC2(CCN(CCc3ccccc3)CC2)CN1c1ccccc1 (stereo not given)	7.00
CCC1OC2(CCN(CCc3ccccc3)CC2)CN(c2ccccc2)C1=O (stereo not given)	6.40
CC(C)C1OC2(CCN(CCc3ccccc3)CC2)CN(c2ccccc2)C1=O (stereo not given)	5.92
C[C@H]1OC2(CCN(CCc3ccccc3F)CC2)CN(c2ncccc2C(F)(F)F)C1=O	5.18
CC1OC2(CCN(CCc3ccccc3)CC2)CN(c2ncccc2C(F)(F)F)C1=O (stereo not given)	5.09
CC1OC2(CCN(CCc3ccc(F)cc3)CC2)CN(c2ccccc2)C1=O (stereo not given)	7.00
COCC1OC2(CCN(CCc3ccccc3)CC2)CN(c2ccccc2)C1=O (stereo not given)	5.72
O=C1N(c2ccccc2)CC2(CCN(CCc3ccccc3)CC2)OC12CC2	5.92
